- measurement-target: T1, recombinant human IL-23R/Fc chimera (R&D Systems) (human, UniProt Q5VWK5 24-355)
- T1 construct: Bought; also called rhIL23RFc
- T1 sequence (looked up): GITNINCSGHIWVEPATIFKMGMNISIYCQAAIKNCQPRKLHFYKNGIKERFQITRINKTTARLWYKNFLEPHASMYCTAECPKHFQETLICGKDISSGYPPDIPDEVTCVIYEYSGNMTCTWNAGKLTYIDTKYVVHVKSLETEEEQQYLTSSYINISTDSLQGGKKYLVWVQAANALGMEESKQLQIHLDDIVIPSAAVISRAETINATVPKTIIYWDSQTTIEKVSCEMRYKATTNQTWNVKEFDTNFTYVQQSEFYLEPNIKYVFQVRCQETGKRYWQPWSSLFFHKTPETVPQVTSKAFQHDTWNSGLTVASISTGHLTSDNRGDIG
- run-description: SPR
result-type: kon

>  <binder>
001-87.A4A monomeric CTLD (designed binder, C-terminal tag not specified) ALQTVCLKGTKVHMKCFLAFTQTKTFHEASEDCISRGGTLSTPQTGSENDALYEYLRQSVGNEAEIWLGLNWTLAKNLWVDMTGARIAYKNWETEITAQPDGGLFGRGENCAVLSGAANGKWFDKRCRDQLPYICQFGIV

>  <result-type>
kon

>  <result>
118000 M⁻¹ s⁻¹

$$$$
>  <binder>
056-41.B12F ATRIMER complex (designed binder, Homotrimer of this chain (ATRIMER complex)., not shown: A possible extra N-terminal Ser from the ompA junction is left out) EPPTQKPKKIVNAKKDVVNTKMFEELKSRLDTLAQEVALLKEQQALQTVCLKGTKVHMKCFLAFTQTKTFHEASEDCISRGGTLSTPQTGSENDALYEYLRQSVGNEAEIWLGLNGSVRSATWVDMTGARIAYKNWETEITAQPDGGYGVFGENCAVLSGAANGKWFDKRCRDQLPYICQFGIV

>  <result-type>
kon

>  <result>
244000 M⁻¹ s⁻¹

$$$$
>  <binder>
056-53.H7H ATRIMER complex (designed binder, Homotrimer of this chain (ATRIMER complex)., not shown: A possible extra N-terminal Ser from the ompA junction is left out) EPPTQKPKKIVNAKKDVVNTKMFEELKSRLDTLAQEVALLKEQQALQTVCLKGTKVHMKCFLAFTQTKTFHEASEDCISRGGTLSTPQTGSENDALYEYLRQSVGNEAEIWLGLNGSSVSDVWVDMTGARIAYKNWETEITAQPDGGFGYFGENCAVLSGAANGKWFDKRCRDQLPYICQFGIV

>  <result-type>
kon

>  <result>
256000 M⁻¹ s⁻¹

$$$$
>  <binder>
105-08-1D3 ATRIMER complex (designed binder) EPPTQKPKKIVNAKKDVVNTKMFEELKSRLDTLAQEVALLKEQQALQTVCLKGTKVHMKCFLAFTQTKTFHEASEDCISRGGTLSTPQTGSENDALYEYLRQSVGNEAEIWLGLNGSKVTETWVDMTGARIAYKNWETEITAQPDGGFGYFGENCAVLSGAANGKWFDKRCRDQLPYICQFGIV

>  <result-type>
kon

>  <result>
228000 M⁻¹ s⁻¹

$$$$
>  <binder>
101-51-1A7 ATRIMER complex (designed binder, Forms a homotrimer through the tetranectin coiled coil; one protomer is given., not shown: C-terminal tag: His/Myc (pANA4) or HA-StrepII (pANA10)) EPPTQKPKKIVNAKKDVVNTKMFEELKSRLDTLAQEVALLKEQQALQTVCLKGTKVHMKCFLAFTQTKTFHEASEDCISRGGTLSTPQTGSENDALYEYLRQSVGNEAEIWLGLNGSALTNTWVDMTGARIAYKNWERPPLYQPGGGWGVFGENCAVLSGAANGKWFDKRCRDQLPYICQFGIV

>  <result-type>
kon

>  <result>
419000 M⁻¹ s⁻¹

$$$$
>  <binder>
001-69.4F5 monomeric CTLD (designed binder, C-terminal tag not specified; not shown: Also the vector's N-terminal AGGGS after the pelB signal) ALQTVCLKGTKVHMKCFLAFTQTKTFHEASEDCISRGGTLSTPQTGSENDALYEYLRQSVGNEAEIWLGLNVLGWRREWVDMTGARIAYKNWETEITAQPDGGLVMPMENCAVLSGAANGKWFDKRCRDQLPYICQFGIV

>  <result-type>
kon

>  <result>
23500 M⁻¹ s⁻¹

$$$$
>  <binder>
001-69.3C2 monomeric CTLD (designed binder, C-terminal tag not specified) ALQTVCLKGTKVHMKCFLAFTQTKTFHEASEDCISRGGTLSTPQTGSENDALYEYLRQSVGNEAEIWLGLNTNVTRTLWVDMTGARIAYKNWETEITAQPDGGLGVWGENCAVLSGAANGKWFDKRCRDQLPYICQFGIV

>  <result-type>
kon

>  <result>
39900 M⁻¹ s⁻¹

$$$$

Next up:
The value of kon measured for the binder 105-08-2C10 ATRIMER complex (designed binder) EPPTQKPKKIVNAKKDVVNTKMFEELKSRLDTLAQEVALLKEQQALQTVCLKGTKVHMKCFLAFTQTKTFHEASEDCISRGGTLSTPQTGSENDALYEYLRQSVGNEAEIWLGLNGSLLTDTWVDMTGARIAYKNWETEITAQPDGGFGVFGENCAVLSGAANGKWFDKRCRDQLPYICQFGIV turned out to be 606000 M⁻¹ s⁻¹
